test: Permeability of the compound at pH 5.5 by PAMPA; assay type: ADME; conditions: read-out: permeability
OBSERVED PROPERTY: Papp (×10⁻⁶ cm/s)
Provide the reading as a plain figure in ×10⁻⁶ cm/s.

- SAMPLE SMILES: "COc1cc2cc(c1)[C@@H](Nc1ccc3c(N)ncc(F)c3c1)C(=O)N(C)Cc1cc(ccc1S(=O)(=O)C1CC1)NC(=O)CC2"
  UNIT ABBREVIATION: "×10⁻⁶ cm/s"
  Papp: 1.5
- SAMPLE SMILES: "CN1Cc2cc(ccc2S(=O)(=O)C2CC2)NC(=O)CCc2cc(ccc2OCC(F)F)[C@@H](Nc2ccc3c(N)ncc(F)c3c2)C1=O"
  UNIT ABBREVIATION: "×10⁻⁶ cm/s"
  Papp: 8.8
- SAMPLE SMILES: "COc1ccc2cc1CCC(=O)Nc1ccc(S(=O)(=O)C3CC3)c(c1)CN(C)C(=O)[C@@H]2Nc1ccc2c(N)ncc(F)c2c1"
  UNIT ABBREVIATION: "×10⁻⁶ cm/s"
  Papp: 35

Please report the recorded Papp for `CN1Cc2cc(ccc2S(=O)(=O)C2CC2)NC(=O)CCc2cccc(c2)[C@@H](Nc2ccc3c(N)ncc(F)c3c2)C1=O` .
6.7
